Quick reference for myelination among some compounds
Tested on: E18 rat cortical neuron-glia co-culture
Assay Details: myelination (MBP fiber length per Olig2+ nucleus), % of 1 µM DAPT response (DMSO = 0) (% of DAPT); higher = more myelination, active = 50 or more
Study Conditions: 5 µM; treatment time: 8 days (DIV5-DIV13)

Compound	myelination
CC(COc1ccccc1)NC(C)C(O)c1ccc(O)cc1 (stereo not drawn) [Isoxsuprine]	-2.46
CC1(C)S[C@@H]2[C@H](NC(=O)COc3ccccc3)C(=O)N2[C@H]1C(=O)O [Penicillin V]	-3.83
O=C(O)COCCN1CCN(C(c2ccccc2)c2ccc(Cl)cc2)CC1 (stereo not drawn) [Virlix]	-8.81
NC(=O)c1ncn([C@@H]2O[C@H](CO)[C@@H](O)[C@H]2O)n1 [Ribavirin]	4.23
CO[C@H]1/C=C/O[C@@]2(C)Oc3c(C)c(O)c4c(O)c(c(/C=N/N5CCN(C6CCCC6)CC5)c(O)c4c3C2=O)NC(=O)/C(C)=C\C=C\[C@H](C)[C@H](O)[C@@H](C)[C@@H](O)[C@@H](C)[C@H](OC(C)=O)[C@@H]1C [Rifapentine]	21
Clc1ccccc1CN1CCc2sccc2C1 [Ticlopidine]	-14.2
COc1cc(-c2ccc(=O)[nH]n2)ccc1OC(F)F [Zardaverine]	-42.4
CN1CCN(C2=Nc3ccccc3Oc3ccc(Cl)cc32)CC1 [Loxapine]	4.82

====

Quick reference for myelination among some compounds
Tested on: E18 rat cortical neuron-glia co-culture
Assay Details: myelination (MBP fiber length per Olig2+ nucleus), % of 1 µM DAPT response (DMSO = 0) (% of DAPT); higher = more myelination, active = 50 or more
Study Conditions: 5 µM; treatment time: 8 days (DIV5-DIV13)
Metric: myelination

Compound	Metric	Measurement
CCC(C)(C)C(=O)O[C@H]1C[C@@H](C)C=C2C=C[C@H](C)[C@H](CC[C@@H]3C[C@@H](O)CC(=O)O3)[C@H]21	myelination	30 (inactive)
CCOC(=O)c1ncn2c1CN(C)C(=O)c1cc(F)ccc1-2	myelination	-19.8 (inactive)
CCCCNc1cc(C(=O)O)cc(S(N)(=O)=O)c1Oc1ccccc1 [Bumetanide]	myelination	-11.3 (inactive)
CCCCNC(=O)NS(=O)(=O)c1ccc(C)cc1 [Tolbutamide]	myelination	-4.03 (inactive)
Cc1cnc(C(=O)NCCc2ccc(S(=O)(=O)NC(=O)NC3CCCCC3)cc2)cn1 [Glipizide]	myelination	-12.8 (inactive)
CC(C)(C#N)c1cc(Cn2cncn2)cc(C(C)(C)C#N)c1	myelination	-11.9 (inactive)
CCCCC[C@H](O)/C=C/[C@H]1[C@H](O)CC(=O)[C@@H]1CCCCCCC(=O)O	myelination	-7.47 (inactive)
Nc1nc(F)nc2c1ncn2[C@@H]1O[C@H](CO)[C@@H](O)[C@@H]1O	myelination	34.3 (inactive)
CN1CCC(=C2c3ccccc3CCc3sccc32)CC1	myelination	-22 (inactive)
CCOC(=O)[C@H](CCc1ccccc1)N[C@@H](C)C(=O)N1[C@H](C(=O)O)C[C@@H]2CCC[C@@H]21	myelination	-8.93 (inactive)
CC(c1cc2ccccc2s1)N(O)C(N)=O (stereo unspecified)	myelination	-19.1 (inactive)
COc1ccc2c3c1O[C@H]1C[C@@H](O)C=C[C@@]31CCN(C)C2	myelination	-40.7 (inactive)
COc1cc2c(cc1OC)C(=O)C(CC1CCN(Cc3ccccc3)CC1)C2 (stereo unspecified)	myelination	-26.1 (inactive)
CN1CCN(c2nc3cc(C(F)(F)F)ccc3n3cccc23)CC1	myelination	-20.7 (inactive)
O=C(O[C@@H]1C[C@@H]2C[C@H]3C[C@H](C1)N2CC3=O)c1c[nH]c2ccccc12	myelination	-14.7 (inactive)
CCOC(=O)N1CCC(=C2c3ccc(Cl)cc3CCc3cccnc32)CC1	myelination	-5.18 (inactive)
Cc1onc(-c2ccccc2)c1C(=O)N[C@@H]1C(=O)N2[C@@H]1SC(C)(C)[C@@H]2C(=O)O	myelination	-10.5 (inactive)
C/C=C1\[C@H]2C=C(C)C[C@]1(N)c1ccc(=O)[nH]c1C2	myelination	-5.77 (inactive)
O=C(O[C@H]1[C@H](Oc2ccccc2COC(=O)C2(O)C=CCCC2=O)O[C@H](CO)[C@@H](O)[C@@H]1O)c1ccccc1 (stereo partly specified)	myelination	30.4 (inactive)
Cc1cccc(Nc2ccccc2C(=O)O)c1C	myelination	38.7 (inactive)
CCCCC1=NC2(CCCC2)C(=O)N1Cc1ccc(-c2ccccc2-c2nnn[nH]2)cc1	myelination	-10.8 (inactive)
N#Cc1ccc(C(c2ccc(C#N)cc2)n2cncn2)cc1	myelination	2.49 (inactive)
CCCCN1CCCCC1C(=O)Nc1c(C)cccc1C (stereo unspecified)	myelination	-16.6 (inactive)
CCCCCCCCCCC[C@@H](C[C@@H]1OC(=O)[C@H]1CCCCCC)OC(=O)[C@H](CC(C)C)NC=O	myelination	38.7 (inactive)
Cc1cc(NS(=O)(=O)c2ccc(N)cc2)no1	myelination	-5.03 (inactive)
CSc1nc2cc(Cl)c(Oc3cccc(Cl)c3Cl)cc2[nH]1	myelination	-18.7 (inactive)
CN[C@@H]1[C@H](O)[C@H](NC)[C@H]2O[C@@]3(O)C(=O)C[C@@H](C)O[C@H]3O[C@@H]2[C@H]1O	myelination	-4.31 (inactive)
Cc1cn([C@H]2C[C@H](N=[N+]=[N-])[C@@H](CO)O2)c(=O)[nH]c1=O	myelination	-21.5 (inactive)
O=C(NCC1CCCCN1)c1cc(OCC(F)(F)F)ccc1OCC(F)(F)F (stereo unspecified) [Flecainide]	myelination	< -49.1 (inactive)
CCN(CC)C(=O)C1(c2ccccc2)CC1CN (stereo unspecified)	myelination	-7.54 (inactive)
COc1ccc([C@@H]2Sc3ccccc3N(CCN(C)C)C(=O)[C@@H]2OC(C)=O)cc1	myelination	-20.8 (inactive)
N[C@@H]1CONC1=O	myelination	-32.4 (inactive)
NC12CC3CC(CC(C3)C1)C2	myelination	0.678 (inactive)
Cc1[nH]c(=O)c(C#N)cc1-c1ccncc1	myelination	-15.7 (inactive)
O=C(O)/C=C/c1ccc(Cn2ccnc2)cc1	myelination	-0.768 (inactive)
CCOc1cc(N)c(Cl)cc1C(=O)NCC1CN(Cc2ccc(F)cc2)CCO1 (stereo unspecified) [Mosapride]	myelination	-56.5 (inactive)

====

System: E18 rat cortical neuron-glia co-culture
Assay Details: fiber score / MBP score (myelination specific beyond OL differentiation) (ratio); higher = more myelination-specific MBP alignment
Study Conditions: 5 µM; treatment time: 8 days (DIV5-DIV13)
Quick reference for fiber score / MBP score among some compounds
Metric: fiber score / MBP score

Compound	Measurement
CCCc1nc(C(C)(C)O)c(C(=O)O)n1Cc1ccc(-c2ccccc2-c2nnn[nH]2)cc1	0.698
CC(=O)NS(=O)(=O)c1ccc(N)cc1 [Sulfacetamide]	1.2
O=C(CCCN1CCC(O)(c2ccc(Cl)cc2)CC1)c1ccc(F)cc1	0.498
CC[C@@H](CO)NCCN[C@@H](CC)CO	0.753
COc1ccc2cc([C@H](C)C(=O)O)ccc2c1	0.859
CCOC(=O)O[C@]1(C(=O)OCCl)CC[C@H]2[C@@H]3CCC4=CC(=O)C=C[C@]4(C)[C@H]3[C@@H](O)C[C@@]21C [Loteprednol etabonate]	0.881
C[C@H]1C[C@@H]2[C@H]([C@@H](O)C[C@@]3(C)[C@H]2CC[C@]3(O)C(=O)CO)[C@@]2(C)C=CC(=O)C=C12	1.01
OCCN1C[C@H](O)[C@@H](O)[C@H](O)[C@H]1CO	0.788
CC[C@H](C)C(=O)O[C@H]1C[C@@H](C)C=C2C=C[C@H](C)[C@H](CC[C@@H]3C[C@@H](O)CC(=O)O3)[C@H]21	6.02
O=c1n(CCCN2CCN(c3cccc(Cl)c3)CC2)nc2ccccn12	0.5
CC(C)C[C@H](NC(=O)[C@@H](COC(C)(C)C)NC(=O)[C@H](Cc1ccc(O)cc1)NC(=O)[C@H](CO)NC(=O)[C@H](Cc1c[nH]c2ccccc12)NC(=O)[C@H](Cc1cnc[nH]1)NC(=O)[C@@H]1CCC(=O)N1)C(=O)N[C@@H](CCCNC(=N)N)C(=O)N1CCC[C@H]1C(=O)NNC(N)=O	0.867
C[C@]12C=CC(=O)C=C1CC[C@@H]1[C@@H]2[C@@H](O)C[C@@]2(C)[C@H]1CC[C@]2(O)C(=O)COC(=O)CCC(=O)O [Prednisolone hemisuccinate]	1.08
CCn1cc(C(=O)O)c(=O)c2ccc(C)nc21	0.797
OCCOCCN1CCN(C2=Nc3ccccc3Sc3ccccc32)CC1 [Quetiapine hemifumarate]	0.327
O=C1[C@H]2CCCC[C@H]2C(=O)N1CCCCN1CCN(c2nsc3ccccc23)CC1	0.198

====

Quick reference for myelination among some compounds
Tested on: E18 rat cortical neuron-glia co-culture
Assay Details: myelination (MBP fiber length per Olig2+ nucleus), % of 1 µM DAPT response (DMSO = 0) (% of DAPT); higher = more myelination, active = 50 or more
Study Conditions: 5 µM; treatment time: 8 days (DIV5-DIV13)

Compound	System Under Test	myelination
COc1ccc2cc([C@H](C)C(=O)O)ccc2c1	E18 rat cortical neuron-glia co-culture	-4.96
Cc1ccc(-c2cc(C(F)(F)F)nn2-c2ccc(S(N)(=O)=O)cc2)cc1	E18 rat cortical neuron-glia co-culture	-0.0582
CCN(CC)CC#CCOC(=O)C(O)(c1ccccc1)C1CCCCC1 (centres undefined)	E18 rat cortical neuron-glia co-culture	-5.69
CO[C@@]1(NC(=O)Cc2cccs2)C(=O)N2C(C(=O)O)=C(COC(N)=O)CS[C@@H]21	E18 rat cortical neuron-glia co-culture	-13.8
C#C[C@]1(O)CC[C@H]2[C@@H]3CCC4=CC(=O)CC[C@@H]4[C@H]3CC[C@@]21C	E18 rat cortical neuron-glia co-culture	-10.7
O=C(O)CCc1nc(-c2ccccc2)c(-c2ccccc2)o1	E18 rat cortical neuron-glia co-culture	-14
C[C@H](N[C@@H](CCc1ccccc1)C(=O)O)C(=O)N1CCC[C@H]1C(=O)O	E18 rat cortical neuron-glia co-culture	-9.9
C#C[C@]1(O)CC[C@H]2[C@@H]3CCc4cc(O)ccc4[C@H]3CC[C@@]21C	E18 rat cortical neuron-glia co-culture	159
CCc1nn(CCCN2CCN(c3cccc(Cl)c3)CC2)c(=O)n1CCOc1ccccc1	E18 rat cortical neuron-glia co-culture	2
